System: MCF10A
Assay: 5+ nucleoli phenotype percent effect (relative to siNT 0% and siKIF11 100%); higher = more cells with five or more nucleoli
Details: 20 nM; 72 h
Could you label it TRUE if measured 5+ nucleoli phenotype percent effect is 40% or higher, and FALSE otherwise?

Example entries and their recorded answers appear below.
>  <ordered residues>
GCUCGGACUGAGCAGGUGGG [hsa-miR-3917]

>  <assigned category>
FALSE

$$$$
>  <ordered residues>
ACUUUAACAUGGAAGUGCUUUC [hsa-miR-302b-5p]

>  <assigned category>
FALSE

$$$$
>  <ordered residues>
UCUCCCUUGAGGGCACUUU [hsa-miR-4287]

>  <assigned category>
TRUE

$$$$

Threshold query (5+ nucleoli phenotype percent effect >= 40%) on CCCAGCAGGACGGGAGCG [hsa-miR-4530]
TRUE

Threshold query (5+ nucleoli phenotype percent effect >= 40%) on GAUUGAGACUAGUAGGGCUAGGC [hsa-miR-4461]
FALSE

Threshold query (5+ nucleoli phenotype percent effect >= 40%) on UCCAGUACAGGUCUCUCAUUUC [hsa-miR-4712-5p]
FALSE

Threshold query (5+ nucleoli phenotype percent effect >= 40%) on AGGGUAAGCUGAACCUCUGAU [hsa-miR-555]
FALSE

Threshold query (5+ nucleoli phenotype percent effect >= 40%) on GGGACCCAGGGAGAGACGUAAG [hsa-miR-711]
FALSE

Threshold query (5+ nucleoli phenotype percent effect >= 40%) on GCUGGGCAGGGCUUCUGAGCUCCUU [hsa-miR-612]
FALSE

Threshold query (5+ nucleoli phenotype percent effect >= 40%) on CAGUGCAAUGAUAUUGUCAAAGC [hsa-miR-301b]
TRUE

Threshold query (5+ nucleoli phenotype percent effect >= 40%) on GCCCUCUGUCACCUUGCAGACG [hsa-miR-2276-5p]
TRUE

###

Reported one-nucleolus phenotype percent effect values for a set of sequences
System: MCF10A
Assay: one-nucleolus phenotype percent effect (relative to siNT 0% and siNOL11 100%); higher = more cells with one nucleolus (ribosome biogenesis inhibition)
Details: 20 nM; 72 h
Just the number please, in %, no unit attached.

The reported value for CACCAGGCAUUGUGGUCUCC [hsa-miR-1911-3p] in terms of one-nucleolus phenotype percent effect is 26.3

The reported value for AGAGCUGAGACUAGAAAGCCCA [hsa-miR-3160-3p] in terms of one-nucleolus phenotype percent effect is 23.1

###

System: MCF10A
Test: percent viability (nuclei count relative to siNT); higher = more viable cells
Conditions: 20 nM; 72 h
experimental readout: percent viability (%)
Just the number please, in %, no unit attached.

Below, each entry is followed by its recorded percent viability result.
>  <ordered residues>
UAGCACCAUUUGAAAUCAGUGUU [hsa-miR-29b-3p]

>  <target desc>
MCF10A

>  <unit text>
%

>  <measured number>
63.7

$$$$
>  <ordered residues>
UUCCCUAUCUCACUCUCCUCAG [hsa-miR-6883-3p]

>  <target desc>
MCF10A

>  <unit text>
%

>  <measured number>
58.5

$$$$
>  <ordered residues>
GUGAGGGACUGGGAUUUGUGG [hsa-miR-6834-5p]

>  <target desc>
MCF10A

>  <unit text>
%

>  <measured number>
81.4

$$$$
>  <ordered residues>
UAGGACUGUGCUUGGCACAUAG [hsa-miR-3169]

>  <target desc>
MCF10A

>  <unit text>
%

>  <measured number>
27.4

$$$$
>  <ordered residues>
UCAGGGUUGGUAGGGGUUGCU [hsa-miR-6823-5p]

>  <target desc>
MCF10A

>  <unit text>
%

>  <measured number>
22.1

$$$$

Shifting focus to the sequence that follows.
The reported value for UCCACUCUCCUGGCCCCCAG [hsa-miR-6777-3p] in terms of percent viability is 51

Where do the numbers come from? From the supplement of paper PMC10899765.
